All values here come from PubChem BioAssay (NCATS).

# method description: Viability qHTS for spleen associated tyrosine kinase inhibitor (SYKi) drug resistant MV4-11 cells (AID 1963824); further: nearly all actives have a fitted effect of over 35% in size; further: potency means the concentration at half of the fitted maximal effect
# measurement setup: SYKi-resistant MV4-11 viability, CellTiter-Glo, 72 h; series mostly up to 45 µM
Results filed as inconclusive are left out. Active and inactive are the calls of the source. The call rests on the fitted dose curve; in most records, active means well fitted cell-killing curve with a large enough effect; inconclusive means small, poorly fitted or top-dose-only effect, or effect the other way; inactive means no such curve, though single readings can be large or run the other way.
attribute measured: Potency

# example entries with known answers
compound=C1N2CN3CN1CN(C2)C3 measurement=inactive
compound=C=C1C(=O)O[C@@H]2/C=C(/C)[C@@H](OC(C)=O)C/C=C(\C)C[C@@H](OC(=O)/C(=C/CO)CO)[C@@H]12 measurement="3.55 µM (active)"
compound=CCC(=O)N[C@H]1CC[C@H](C(=O)N(C)c2ccc(-c3nc4ccccc4o3)cc2)C1 measurement="14.8 µM (active)"
compound=CC(=O)NCCCCCC(=O)O measurement=inactive
compound=Cn1cnc(-c2nccc3c(=O)[nH]c(OCCCC(F)(F)F)nc23)c1 measurement="9.2 µM (active)"
compound=O=C(/C=C/c1ccc2ccc(C(F)(F)F)cc2n1)c1ccncc1 measurement="0.934 µM (active)"

Returns the measured Potency for the input compound. Input: COCCOc1cnc2ccn([C@H](C)c3nnc4c(F)cc(-c5cnn(C)c5)cn34)c(=O)c2c1
inactive

Please do the same for Cc1cc2cc(Oc3ccnc(Nc4cccc(CS(=O)(=O)NCCN(C)C)c4)n3)ccc2[nH]1 as well.
1.86 µM (active)

Please do the same for CC[N+]1(CC)CCC(=C(c2ccccc2)c2ccccc2)C1C (stereo not given) as well.
8.2 µM (active)

Please do the same for CN(C)CCOc1ccc(/C(=C(/CCCl)c2ccccc2)c2ccccc2)cc1 as well.
13.2 µM (active)
